System: E. coli ATCC25922
TEST_DESCRIPTION: MIC determination, broth microdilution (CLSI)
Type: cell-based
TEST_CONDITIONS: Escherichia coli, ATCC25922, strain 1
Hi there, I'd appreciate the recorded MIC for every entry that follows.
Give just the numeric value; µg/mL need not be written.

Record CC1(C)[C@H](NC(=O)/C(=N\OCCOc2ccc(C(=N)N)c(O)c2)c2csc(N)n2)C(=O)N1OS(=O)(=O)O , field MIC: 0.25

The molecule C[C@H]1[C@H](NC(=O)/C(=N\OCCOc2ccc(C(=N)N)cc2N)c2csc(N)n2)C(=O)N1S(=O)(=O)O showed MIC equal to 2

Field MIC (entry C[C@H]1[C@H](NC(=O)/C(=N\OCCOc2cnc(C(=N)N)cn2)c2csc(N)n2)C(=O)N1S(=O)(=O)O ) reads 0.125

Recorded result, C[C@H]1[C@H](NC(=O)/C(=N\OCCOc2ccc(C(=N)N)cc2)c2csc(N)n2)C(=O)N1S(=O)(=O)O , MIC: 0.125

Looking up CC1(C)[C@H](NC(=O)/C(=N\OCCOc2ccc(C(=N)N3CCNCC3)cc2)c2csc(N)n2)C(=O)N1OS(=O)(=O)O , I see its MIC listed as 0.25

Record CC(=N)N1CC[C@H](NC(=N)c2ccc(OCCO/N=C(\C(=O)N[C@@H]3C(=O)N(OS(=O)(=O)O)C3(C)C)c3csc(N)n3)cc2)C1 , field MIC: 0.5

Just so you know, measured MIC for CC1(C)[C@H](NC(=O)/C(=N\OCCOc2ccc(C(=N)NC3CCNCC3)cc2)c2csc(N)n2)C(=O)N1OS(=O)(=O)O came out at 0.125

What the record says about CC1(C)[C@H](NC(=O)/C(=N\OC(COc2ccc(C(=N)NC3CCCNC3)cc2)C(=O)O)c2csc(N)n2)C(=O)N1OS(=O)(=O)O (stereo in doubt) : MIC is 0.125

Lookup result for CC1(C)[C@H](NC(=O)/C(=N\OCCOc2ccc(C(=N)NCCN)cc2)c2csc(N)n2)C(=O)N1OS(=O)(=O)O ; measured MIC: 0.125

Consider C[C@H]1[C@H](NC(=O)/C(=N\OCCOc2cc(C(=N)N)nn2C)c2csc(N)n2)C(=O)N1S(=O)(=O)O . Its measured MIC is 2

Lab note: C[C@H]1[C@H](NC(=O)/C(=N\OCCOc2nc(C(=N)N)cs2)c2csc(N)n2)C(=O)N1S(=O)(=O)O gave MIC of 0.125

* * *

I'd appreciate it if you could supply strain 5 MIC values for the items below.
Test system: M. morganii 126/3048
TEST_DESCRIPTION: MIC determination, broth microdilution (CLSI)
Assay type: cell-based
TEST_CONDITIONS: strain 5
Please give a number only; it is taken to be in µg/mL.

strain 5 MIC recorded for this molecule, CC1(C)[C@H](NC(=O)/C(=N\OC(COc2ccc(C(=N)N)nc2)C(=O)O)c2csc(N)n2)C(=O)N1OS(=O)(=O)O (mixture of isomers) [Example 36B] , is 2

Input C[C@H]1[C@H](NC(=O)/C(=N\OC(COc2ccc(C(=N)N)cc2)C(=O)O)c2csc(N)n2)C(=O)N1S(=O)(=O)O (mixture of isomers) [Example 26B] . Output strain 5 MIC: 0.5

Record CC1(C)[C@H](NC(=O)/C(=N\OC(COc2ccc(C(=N)N)c(O)c2)C(=O)O)c2csc(N)n2)C(=O)N1OS(=O)(=O)O (mixture of isomers) [Example 34B] , field strain 5 MIC: 4

Lab note: measured strain 5 MIC of CC1(C)[C@H](NC(=O)/C(=N\OC(COc2ccc(C(=N)N)c(O)c2)C(=O)O)c2csc(N)n2)C(=O)N1OS(=O)(=O)O (mixture of isomers) [Example 34A] was 0.25
